Data credit: ChEMBL document CHEMBL1201862

- Test system: UACC-257
- assay.notes: NCI tumour cell line growth inhibition, 48 h
Activity calls are given as the source filed them. Rule as the data show it: active = GI50 up to about 1.1 µM and inactive = higher.
Entries and their GI50

Here are 5 compounds together with their reported answers.
{"compound": "Cc1ccc(/C=C(\\NC(=O)c2ccccc2)c2nc3ccccc3[nH]2)cc1", "GI50": "35.3 µM (inactive)"}
{"compound": "CC(=O)OCC1OC(n2c3c(c(-c4ccc(Cl)cc4)c(C#N)c2=S)CCCC3)C(OC(C)=O)C(OC(C)=O)C1OC(C)=O (stereo not drawn)", "GI50": "51.9 µM (inactive)"}
{"compound": "FC(F)(F)c1ccc2c(c1)nc1n2C(c2c(Cl)cccc2Cl)SC1 (stereo not drawn)", "GI50": "18.9 µM (inactive)"}
{"compound": "CSC1(SC)N2Cc3ccccc3N=C2C1(c1ccccc1)c1ccccc1", "GI50": "13 µM (inactive)"}
{"compound": "Cc1ccc(C(=O)/C=C(\\O)C(=O)NN=C(c2ccccc2)c2ccccc2)cc1", "GI50": "> 100 µM (inactive)"}

Query string: Test system UACC-257; read-out GI50; what value for "O=C(c1ccco1)N(C(=S)N1CCN(c2ccccc2)CC1)c1ccccc1" ?
Result string: > 100 µM (inactive)

Query string: Likewise for CSc1nc(NC2OC(COC(C)=O)C(OC(C)=O)C(OC(C)=O)C2OC(C)=O)c(/N=C(\C)C(C)=O)c(=O)n1C (stereo not drawn) ?
Result string: > 100 µM (inactive)

Query string: Would you mind doing "COc1ccc(P2(=S)OC(C)(C)C(C)(C)O2)cc1" as well?
Result string: > 100 µM (inactive)

* * *

- Test system: HT-29
- assay.notes: NCI tumour cell line growth inhibition, 48 h
Active and inactive are the calls of the source. No stated cut-off is given here; in the data, active = GI50 up to about 1.1 µM and inactive = higher.
recorded.endpoint: GI50

Query string: Find the recorded GI50 belonging to O=C(O)C12C3CCC(C3)C1(C(=O)O)C1CCC2C1 (centres undefined) and report it.
Result string: > 100 µM (inactive)

Query string: Now this one: "Cc1ccc(S(=O)(=O)OCCOCCOCCOCCOCCOS(=O)(=O)c2ccc(C)cc2)cc1"
Result string: 28.3 µM (inactive)

Query string: Param item: "Cc1cccc(-c2nc3ccc([N+](=O)[O-])cc3c(=O)o2)c1"
Result string: 62.4 µM (inactive)

Query string: Request: "CCc1nc2c(n1CC)C(=O)c1ccccc1C2=O"
Result string: 24.9 µM (inactive)

* * *

- Test system: K562
- assay.notes: NCI tumour cell line growth inhibition, 48 h
The source made the active and inactive calls. Rule as the data show it: active = GI50 up to about 1.1 µM and inactive = higher.
Entries and their GI50 values follow.

In the examples that follow, each entry is paired with its recorded GI50.
{"molecule": "COC(=O)C1c2cc3c(c(O)c2C(O)CC1(C)O)C(=O)c1c(O)cc2c(c1C3=O)OC1OC2(C)C(O)C(N(C)C)C1O (centres undefined)", "GI50": "11.3 µM (inactive)"}
{"molecule": "CCOC(=O)c1ccc(Nc2nc3ccccc3nc2C(=O)OCC)cc1", "GI50": "> 100 µM (inactive)"}
{"molecule": "COC(=O)c1ccccc1C1CN=NC12Cc1c(C)cccc1C2=O (centres undefined)", "GI50": "> 100 µM (inactive)"}
{"molecule": "COc1ccc(-c2ncnc(-c3ccc(OC)c(OC)c3)n2)cc1OC", "GI50": "> 100 µM (inactive)"}
{"molecule": "CC1(C)[C@H](C(=O)O)N2C(=O)[C@@H](NS(=O)(=O)c3ccc([N+](=O)[O-])cc3)[C@H]2S1(=O)=O", "GI50": "> 100 µM (inactive)"}
{"molecule": "CN(C(=O)C12C3C4C1C1C2C3C41C(N)=O)C(C)(C)C (centres undefined)", "GI50": "> 100 µM (inactive)"}

Query molecule follows.
Query string: For the molecule "Cc1cccc(N2C(=O)/C(=C/c3ccc(N(CCC#N)CCC#N)cc3C)N=C2c2cc([N+](=O)[O-])ccc2Cl)c1" , what GI50 is on record?
Result string: 86.1 µM (inactive)
